B1: library; a variant is named by its letters at N, in order (parent)
chain: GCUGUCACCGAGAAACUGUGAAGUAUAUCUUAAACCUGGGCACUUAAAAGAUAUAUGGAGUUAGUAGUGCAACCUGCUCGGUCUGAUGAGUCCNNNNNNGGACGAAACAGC

Variants of: B1
Experiment: normalized RNA/DNA level with ligand (relative to sTRSVctl = 100) (log10 (% of sTRSVctl)); HEK293T; ligand: cyclic di-GMP (c-di-GMP-II aptamer); ligand concentration (+) RNA-Seq: 1 mM; higher = less ribozyme self-cleavage, higher mRNA level
Details: reporter: mCherry (pCS4076), ligand present: yes
Item-by-item account of normalized RNA/DNA level with ligand (log10)
// return a plain number; no unit text

GCUGUCACCGAGAAACUGUGAAGUAUAUCUUAAACCUGGGCACUUAAAAGAUAUAUGGAGUUAGUAGUGCAACCUGCUCGGUCUGAUGAGUCCGGUCCGGGACGAAACAGC
1.96
GCUGUCACCGAGAAACUGUGAAGUAUAUCUUAAACCUGGGCACUUAAAAGAUAUAUGGAGUUAGUAGUGCAACCUGCUCGGUCUGAUGAGUCCUCUUAUGGACGAAACAGC
1.85
GCUGUCACCGAGAAACUGUGAAGUAUAUCUUAAACCUGGGCACUUAAAAGAUAUAUGGAGUUAGUAGUGCAACCUGCUCGGUCUGAUGAGUCCAUGUAAGGACGAAACAGC
1.68
GCUGUCACCGAGAAACUGUGAAGUAUAUCUUAAACCUGGGCACUUAAAAGAUAUAUGGAGUUAGUAGUGCAACCUGCUCGGUCUGAUGAGUCCGGCCUUGGACGAAACAGC
1.9

Reported normalized RNA/DNA level with ligand (log10) of GCUGUCACCGAGAAACUGUGAAGUAUAUCUUAAACCUGGGCACUUAAAAGAUAUAUGGAGUUAGUAGUGCAACCUGCUCGGUCUGAUGAGUCCACUUAGGGACGAAACAGC : 1.75

Reported normalized RNA/DNA level with ligand (log10) of GCUGUCACCGAGAAACUGUGAAGUAUAUCUUAAACCUGGGCACUUAAAAGAUAUAUGGAGUUAGUAGUGCAACCUGCUCGGUCUGAUGAGUCCGCAUUGGGACGAAACAGC : 1.71

Reported normalized RNA/DNA level with ligand (log10) of GCUGUCACCGAGAAACUGUGAAGUAUAUCUUAAACCUGGGCACUUAAAAGAUAUAUGGAGUUAGUAGUGCAACCUGCUCGGUCUGAUGAGUCCGUAAGGGGACGAAACAGC : 1.74

Reported normalized RNA/DNA level with ligand (log10) of GCUGUCACCGAGAAACUGUGAAGUAUAUCUUAAACCUGGGCACUUAAAAGAUAUAUGGAGUUAGUAGUGCAACCUGCUCGGUCUGAUGAGUCCGACUACGGACGAAACAGC : 1.82

Reported normalized RNA/DNA level with ligand (log10) of GCUGUCACCGAGAAACUGUGAAGUAUAUCUUAAACCUGGGCACUUAAAAGAUAUAUGGAGUUAGUAGUGCAACCUGCUCGGUCUGAUGAGUCCAGCGGGGGACGAAACAGC : 1.9

Reported normalized RNA/DNA level with ligand (log10) of GCUGUCACCGAGAAACUGUGAAGUAUAUCUUAAACCUGGGCACUUAAAAGAUAUAUGGAGUUAGUAGUGCAACCUGCUCGGUCUGAUGAGUCCUGGGGUGGACGAAACAGC : 1.77

Reported normalized RNA/DNA level with ligand (log10) of GCUGUCACCGAGAAACUGUGAAGUAUAUCUUAAACCUGGGCACUUAAAAGAUAUAUGGAGUUAGUAGUGCAACCUGCUCGGUCUGAUGAGUCCAUUAGAGGACGAAACAGC : 1.69

Reported normalized RNA/DNA level with ligand (log10) of GCUGUCACCGAGAAACUGUGAAGUAUAUCUUAAACCUGGGCACUUAAAAGAUAUAUGGAGUUAGUAGUGCAACCUGCUCGGUCUGAUGAGUCCUGUCUAGGACGAAACAGC : 1.84

Reported normalized RNA/DNA level with ligand (log10) of GCUGUCACCGAGAAACUGUGAAGUAUAUCUUAAACCUGGGCACUUAAAAGAUAUAUGGAGUUAGUAGUGCAACCUGCUCGGUCUGAUGAGUCCUAGGCUGGACGAAACAGC : 1.88

Reported normalized RNA/DNA level with ligand (log10) of GCUGUCACCGAGAAACUGUGAAGUAUAUCUUAAACCUGGGCACUUAAAAGAUAUAUGGAGUUAGUAGUGCAACCUGCUCGGUCUGAUGAGUCCCGCUUGGGACGAAACAGC : 1.88
